Hey, just so you know, these numbers are from ChEMBL document CHEMBL4715750.

Test: Cytotoxicity against human SH-SY5Y cells assessed as cell viability at 12.5 uM measured after 24 hrs by MTT assay relative to control
Assay type: cell-based
Details: read-out: Activity
// reported viability at 24 h, 12.5 µM per item
Field format: number, assumed %, no unit text.

Answered examples (4):
molecule	unitAnnotation	viability at 24 h, 12.5 µM
COc1cc2c(cc1O)CCC(C)(CCNC(=O)/C=C(C)/C=C/C=C(C)/C=C/C1=C(C)CCCC1(C)C)O2 (stereo not given)	%	100
COc1cc2c(cc1O)CCC(C)(CC(=O)N[C@@H](CCC(N)=O)C(=O)O)O2 (stereo not given in full)	%	84.8
COc1cc2c(cc1O)CCC(C)(CC(=O)N[C@@H](Cc1ccc(O)cc1)C(=O)O)O2 (stereo not given in full)	%	81.6
Cc1c(C)c2c(c(C)c1O)CCC(C)(C(=O)O)O2 (stereo not given)	%	82.8

Here's the next entry for you.
Return viability at 24 h, 12.5 µM for the following molecule: COc1cc2c(cc1O)CCC(C)(CC(=O)N[C@@H](Cc1c[nH]c3ccccc13)C(=O)O)O2 (stereo not given in full) 91.2

----------
Assay: Cytotoxicity against human SH-SY5Y cells assessed as cell viability at 12.5 uM measured after 2 hrs by MTT assay relative to control
Assay type: cell-based
Conditions: read-out: Activity
Items are presented alongside their recorded viability at 2 h, 12.5 µM.
Entry rule: numbers only, all in %.

Some solved entries appear below for comparison.
compound	viability at 2 h, 12.5 µM, %
COc1cc2c(cc1O)CCC(C)(CC(=O)NCCc1ccc(O)c(O)c1)O2 (stereo unspecified)	100
COc1cc2c(cc1O)CCC(C)(CC(=O)N[C@@H](Cc1ccccc1)C(=O)O)O2 (stereo partly specified)	100
COc1cc2c(cc1O)CCC(C)(C)O2	91.5
COc1cc2c(cc1O)CCC(C)(CC(=O)N[C@@H](Cc1ccc(O)cc1)C(=O)O)O2 (stereo partly specified)	92.5
COc1cc2c(cc1O)CCC(C)(CC(=O)N[C@@H](Cc1c[nH]c3ccccc13)C(=O)O)O2 (stereo partly specified)	100
COc1cc2c(cc1O)CCC(C)(CCNC(=O)C[C@H]1OC(O)[C@H](O)[C@@H](O)[C@@H]1O)O2 (stereo partly specified)	100

Proceed to the following item.
State, in one line, measured viability at 2 h, 12.5 µM of Cc1c(C)c2c(c(C)c1O)CCC(C)(C(=O)O)O2 (stereo unspecified) 95

----------
Measured viability at 2 h, 50 µM by item
Experiment: Cytotoxicity against human SH-SY5Y cells assessed as cell viability at 50 uM measured after 2 hrs by MTT assay relative to control
Assay type: cell-based
Conditions: read-out: Activity
Reply with just the number (in %).

molecule	unitAnnotation	viability at 2 h, 50 µM
COc1cc2c(cc1O)CCC(C)(CCNC(=O)C[C@H]1OC(O)[C@H](O)[C@@H](O)[C@@H]1O)O2 (stereo not given in full)	%	99.6

Fill in reported viability at 2 h, 50 µM for this entry: COc1cc2c(cc1O)CCC(C)(C)O2 86.8

Answer with the recorded viability at 2 h, 50 µM of COc1cc2c(cc1O)CCC(C)(CC(=O)N[C@@H](Cc1ccc(O)cc1)C(=O)O)O2 (stereo not given in full) only. 95.7

Give viability at 2 h, 50 µM for the following molecule: COc1cc2c(cc1O)CCC(C)(CC(=O)N[C@@H](C)C(=O)O)O2 (stereo not given in full) 86.6

Please report viability at 2 h, 50 µM for the following molecule: COc1cc2c(cc1O)CCC(C)(CC(=O)NCCc1ccc(O)c(O)c1)O2 (stereo not given) 100

----------
Assay: Cytotoxicity against human SH-SY5Y cells assessed as cell viability at 12.5 uM measured after 24 hrs by MTT assay relative to control
Assay type: cell-based
Conditions: read-out: Activity
The entries below come with measured viability at 24 h, 12.5 µM values attached.
A number alone suffices; assume %.

Recorded results for 3 compounds are shown here.
compound	viability at 24 h, 12.5 µM [%]
COc1cc2c(cc1O)CCC(C)(CC(N)=O)O2 (stereo unspecified)	100
COc1cc2c(cc1O)CCC(C)(CC(N)C(=O)O)O2 (stereo unspecified)	100
COc1cc2c(cc1O)CCC(C)(CC(=O)N1CCC[C@H]1C(=O)O)O2 (stereo partly specified)	100

Name the recorded viability at 24 h, 12.5 µM of the item COc1cc2c(cc1O)CCC(C)(C)O2 in your answer. 100

Identify measured viability at 24 h, 12.5 µM associated with COc1cc2c(cc1O)CCC(C)(CC(=O)O)O2 (stereo unspecified) 92

----------
Assay: Cytotoxicity against human SH-SY5Y cells assessed as cell viability at 25 uM measured after 2 hrs by MTT assay relative to control
Assay type: cell-based
Details: read-out: Activity
valueType: viability at 2 h, 25 µM (%)
Number in %, nothing else.

compound	recordedMeasurement
COc1cc2c(cc1O)CCC(C)(CC(N)C(=O)O)O2 (stereo not given)	100

Tell me viability at 2 h, 25 µM reported for COc1cc2c(cc1O)CCC(C)(CC(=O)N[C@@H](C)C(=O)O)O2 (stereo not given in full) 89.5

Write down viability at 2 h, 25 µM measured for item COc1cc2c(cc1O)CCC(C)(CCNC(=O)/C=C(C)/C=C/C=C(C)/C=C/C1=C(C)CCCC1(C)C)O2 (stereo not given) 100

Tell me measured viability at 2 h, 25 µM for COc1cc2c(cc1O)CCC(C)(CCNC(=O)C[C@H]1OC(O)[C@H](O)[C@@H](O)[C@@H]1O)O2 (stereo not given in full) please. 100

Read off the recorded viability at 2 h, 25 µM for COc1cc2c(cc1O)CCC(C)(C)O2 90.6

----------
Test system: SH-SY5Y
Experiment: Antioxidant activity in human SH-SY5Y cells assessed as inhibition of H2O2-induced DCFH oxidation measured after 1 hr by DCFH-DA dye based fluorescence assay
Type: functional, cell-based
valueType: IC50

Examples with their reported IC50 follow.
compound	IC50
COc1cc2c(cc1O)CCC(C)(CC(=O)N[C@@H](Cc1c[nH]c3ccccc13)C(=O)O)O2 (stereo partly specified)	> 200 µM
COc1cc2c(cc1O)CCC(C)(CC(=O)N[C@H](C(=O)O)C(C)C)O2 (stereo partly specified)	43.8 µM
COc1cc2c(cc1O)CCC(C)(CCNC(C)=O)O2 (stereo unspecified)	50.3 µM
COc1cc2c(cc1O)CCC(C)(CC(N)=O)O2 (stereo unspecified)	71.2 µM
COc1cc2c(cc1O)CCC(C)(CC(N)C(=O)O)O2 (stereo unspecified)	> 200 µM

Please report the measured IC50 for COc1cc2c(cc1O)CCC(C)(CC(=O)O)O2 (stereo unspecified) 32.3 µM

Look up IC50 of COc1cc2c(cc1O)CCC(C)(CCNC(=O)C[C@H]1OC(O)[C@H](O)[C@@H](O)[C@@H]1O)O2 (stereo partly specified) and report it. 35.6 µM

Specify measured IC50 for COc1cc2c(cc1O)CCC(C)(CC(=O)N[C@@H](Cc1ccc(O)cc1)C(=O)O)O2 (stereo partly specified) . 50 µM

Output IC50 of COc1cc2c(cc1O)CCC(C)(CC(=O)NCCc1ccc(O)c(O)c1)O2 (stereo unspecified) 21.6 µM

----------
Experiment: Cytotoxicity against human SH-SY5Y cells assessed as cell viability at 1.6 uM measured after 24 hrs by MTT assay relative to control
Type: cell-based
Conditions: read-out: Activity
valueType: viability at 24 h, 1.6 µM (%)
Lab book: enter the figure in %, no units written.

In the examples that follow, each entry is paired with its recorded viability at 24 h, 1.6 µM.
molecule	viability at 24 h, 1.6 µM [%]
COc1cc2c(cc1O)CCC(C)(CC(=O)O)O2 (stereo unspecified)	100
Cc1c(C)c2c(c(C)c1O)CCC(C)(C(=O)O)O2 (stereo unspecified)	87.6
COc1cc2c(cc1O)CCC(C)(CC(=O)N[C@H](C(=O)O)C(C)C)O2 (stereo partly specified)	82.1

Look up and state reported viability at 24 h, 1.6 µM for COc1cc2c(cc1O)CCC(C)(CC(N)=O)O2 (stereo unspecified) 100

# return recorded viability at 24 h, 1.6 µM for entry COc1cc2c(cc1O)CCC(C)(C)O2 93.9

Read the entry COc1cc2c(cc1O)CCC(C)(CC(=O)N[C@@H](Cc1c[nH]c3ccccc13)C(=O)O)O2 (stereo partly specified) and write its reported viability at 24 h, 1.6 µM. 96

Give a short answer stating reported viability at 24 h, 1.6 µM for COc1cc2c(cc1O)CCC(C)(CCNC(C)=O)O2 (stereo unspecified) . 78.7

Query viability at 24 h, 1.6 µM for COc1cc2c(cc1O)CCC(C)(CC(=O)NCCc1ccc(O)c(O)c1)O2 (stereo unspecified) 88.9

Please list viability at 24 h, 1.6 µM recorded for the molecule COc1cc2c(cc1O)CCC(C)(CC(=O)N[C@@H](CCC(N)=O)C(=O)O)O2 (stereo partly specified) 89.4

Identify the reported viability at 24 h, 1.6 µM for the following entry. COc1cc2c(cc1O)CCC(C)(CC(=O)N[C@@H](C)C(=O)O)O2 (stereo partly specified) 100

Note viability at 24 h, 1.6 µM for the molecule shown: COc1cc2c(cc1O)CCC(C)(CC(=O)N1CCC[C@H]1C(=O)O)O2 (stereo partly specified) 93.2
